test.description: Half life in Sprague-Dawley rat at 5 mg/kg, iv or 10 mg/kg, po
Assay type: ADME, organism-based
applied.conditions: in vivo
measured.attribute: half-life
Returns: string containing the number followed by the unit.

Req: Return value of half-life for input CCOCCOc1cc2ncnc(Nc3ccc(F)c(Cl)c3)c2cc1NC(=O)/C=C/CN(C)C , no commentary.
Resp: 6.8 h

* * *

For each record, write down the corresponding log10(IC50).
System: HCC827
test.description: cells
applied.conditions: Homo sapiens, HCC827, 72 h
Description: Antiproliferative activity against human HCC827 cells harboring EGFR L858R mutant after 72 hrs by CCK8 assay
Parameter value (number): base-10 log of IC50 in nM.

Req: Provide the reported log10(IC50) (system: HCC827) for CCOCCOc1cc2ncnc(Nc3ccc(OCC(F)(F)F)c(Cl)c3)c2cc1NC(=O)/C=C/CN(C)C
Resp: 0.46

Req: Provide the reported log10(IC50) (system: HCC827) for CCOCCOc1cc2ncnc(Nc3ccc(F)c(Cl)c3)c2cc1NC(=O)/C=C/C(F)(F)F
Resp: -0.82

Req: Provide the reported log10(IC50) (system: HCC827) for C#CC(=O)Nc1cc2c(Nc3ccc(F)c(Cl)c3)ncnc2cc1OCCOCC
Resp: 0.16

Req: Provide the reported log10(IC50) (system: HCC827) for C=C(Br)C(=O)Nc1cc2c(Nc3ccc(F)c(Cl)c3)ncnc2cc1OCCOCC
Resp: 0.81

Req: Provide the reported log10(IC50) (system: HCC827) for CCOCCOc1cc2ncnc(Nc3ccc(OCCOC)c(Cl)c3)c2cc1NC(=O)/C=C/CN(C)C
Resp: 0.54

Req: Provide the reported log10(IC50) (system: HCC827) for C=CS(=O)(=O)Nc1cc2c(Nc3ccc(F)c(Cl)c3)ncnc2cc1OCCOCC
Resp: 0.60

Req: Provide the reported log10(IC50) (system: HCC827) for CCOCCOc1cc2ncnc(Nc3ccc(F)c(Cl)c3)c2cc1NC(=O)/C=C/Br
Resp: 0.69

Req: Provide the reported log10(IC50) (system: HCC827) for C=CC(=O)Nc1cc2c(Nc3ccc(F)c(Cl)c3)ncnc2cc1OCCOCC
Resp: -0.82

Req: Provide the reported log10(IC50) (system: HCC827) for C=C(Cl)C(=O)Nc1cc2c(Nc3ccc(F)c(Cl)c3)ncnc2cc1OCCOCC
Resp: 1.52

* * *

target.of.assay: Epidermal growth factor receptor (Homo sapiens)
Sequence (P00533 whole entry, the tested form may be a part): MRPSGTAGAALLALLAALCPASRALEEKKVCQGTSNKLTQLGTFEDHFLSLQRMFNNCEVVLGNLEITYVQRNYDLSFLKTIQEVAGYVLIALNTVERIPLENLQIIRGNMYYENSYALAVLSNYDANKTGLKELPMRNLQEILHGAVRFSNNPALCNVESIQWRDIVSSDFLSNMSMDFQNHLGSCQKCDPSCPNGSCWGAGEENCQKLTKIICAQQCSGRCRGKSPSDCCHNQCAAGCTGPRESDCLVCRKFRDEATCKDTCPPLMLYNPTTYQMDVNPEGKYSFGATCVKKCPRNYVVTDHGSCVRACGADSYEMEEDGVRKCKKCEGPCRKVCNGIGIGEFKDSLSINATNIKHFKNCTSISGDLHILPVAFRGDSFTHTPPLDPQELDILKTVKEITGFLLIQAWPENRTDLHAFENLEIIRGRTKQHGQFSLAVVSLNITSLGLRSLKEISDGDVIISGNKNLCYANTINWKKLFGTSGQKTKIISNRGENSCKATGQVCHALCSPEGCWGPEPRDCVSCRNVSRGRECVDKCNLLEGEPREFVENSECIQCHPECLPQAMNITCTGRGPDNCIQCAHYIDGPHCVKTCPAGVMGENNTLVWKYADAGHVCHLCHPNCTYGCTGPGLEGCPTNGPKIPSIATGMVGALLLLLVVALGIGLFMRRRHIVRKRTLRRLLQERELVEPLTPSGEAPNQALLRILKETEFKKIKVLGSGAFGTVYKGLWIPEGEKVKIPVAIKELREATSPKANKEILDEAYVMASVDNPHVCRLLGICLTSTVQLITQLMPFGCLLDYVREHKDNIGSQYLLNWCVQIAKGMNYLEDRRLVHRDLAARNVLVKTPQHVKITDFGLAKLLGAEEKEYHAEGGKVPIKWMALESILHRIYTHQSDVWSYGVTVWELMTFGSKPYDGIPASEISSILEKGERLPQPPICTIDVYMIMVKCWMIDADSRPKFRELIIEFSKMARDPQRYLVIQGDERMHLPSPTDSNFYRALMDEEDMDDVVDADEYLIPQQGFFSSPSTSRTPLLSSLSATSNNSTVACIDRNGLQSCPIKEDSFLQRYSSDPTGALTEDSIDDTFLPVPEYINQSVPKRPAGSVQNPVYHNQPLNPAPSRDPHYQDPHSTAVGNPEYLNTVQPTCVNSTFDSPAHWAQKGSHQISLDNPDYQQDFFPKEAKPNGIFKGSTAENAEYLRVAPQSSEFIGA
test.description: Inhibition of recombinant human GST-tagged EGFR catalytic domain (668 to 1210 residues) expressed in baculovirus expression system using TK-biotin peptide as substrate measured after 10 mins by HTRF assay
measured.attribute: IC50 (nM)
Quick reminder: number only, in nM, skip the unit.

Req: Return value of IC50 for input CCOCCOc1cc2ncnc(Nc3ccc(F)c(Cl)c3)c2cc1NC(=O)/C=C/CN(C)C , no commentary.
Resp: 0.69

* * *

test.description: Tmax in Sprague-Dawley rat at 5 mg/kg, iv or 10 mg/kg, po
Format: ADME, organism-based
applied.conditions: in vivo
measured.attribute: Tmax (h)
Quick reminder: number only, in h, skip the unit.

Req: Return value of Tmax for input CCOCCOc1cc2ncnc(Nc3ccc(F)c(Cl)c3)c2cc1NC(=O)/C=C/CN(C)C , no commentary.
Resp: 4

* * *

test.description: Oral bioavailability in Sprague-Dawley rat at 10 mg/kg
Type: ADME, organism-based
applied.conditions: in vivo
For each record, write down the corresponding bioavailability.
Quick reminder: number only, in %, skip the unit.

Req: Return value of bioavailability for input CCOCCOc1cc2ncnc(Nc3ccc(F)c(Cl)c3)c2cc1NC(=O)/C=C/CN(C)C , no commentary.
Resp: 46

Req: Return value of bioavailability for input CCOCCOc1cc2ncnc(Nc3ccc(F)c(Cl)c3)c2cc1NC(=O)/C=C/CN(C)C.O=C(O)/C=C\C(=O)O , no commentary.
Resp: 70
